In this section we review reported CC50 values for a set of compounds.
test: in vitro; settings: human, CC50
MEASURED PARAMETER: CC50 (µg/mL)

CHEMICAL STRING: COc1cc(C(C)C)ccc1C1(NC(N)=O)C(=O)c2ccccc2C1=O
MEASURED PARAMETER: CC50
BOUND TYPE: >
READING: 117
//
CHEMICAL STRING: COC1(c2ccc(C(C)C)cc2O)C(=O)c2ccccc2C1=O
MEASURED PARAMETER: CC50
BOUND TYPE: =
READING: 9.2
//
CHEMICAL STRING: CC(=O)Oc1ccc(-c2ccccc2)cc1C1(OC(C)=O)C(=O)c2ccccc2C1=O
MEASURED PARAMETER: CC50
BOUND TYPE: =
READING: 7.85
//
CHEMICAL STRING: CC(C)c1ccc(C2(NC(=O)c3ccccc3)C(=O)c3ccccc3C2=O)c(OC(=O)c2ccccc2)c1
MEASURED PARAMETER: CC50
BOUND TYPE: >
READING: 117

* * *

experiment: Cytotoxicity (CC50) in mock-infected cells, MTT assay, Experimental Example 1; conditions: human

COMPOUND: CC(=O)NC1(c2ccc(C(C)C)cc2OC(=O)N(C)C)C(=O)c2ccccc2C1=O
CC50: > 100 µg/mL

COMPOUND: CC(=O)NC1(c2ccc(C(C)C)cc2OC(=O)N(C)C)C(=O)c2cccc(N)c2C1=O (stereo not shown)
CC50: > 100 µg/mL

COMPOUND: CC(C)c1ccc(C2(OC(=O)N(C)C)C(=O)c3ccccc3C2=O)c(OC(=O)N(C)C)c1
CC50: > 100 µg/mL

COMPOUND: CNC(=O)Oc1cc(C(C)C)ccc1C1(NC(C)=O)C(=O)c2ccccc2C1=O
CC50: 45.1 µg/mL

* * *

As shown below, each of these compounds has a reported melting point value.
MEASURED PARAMETER: melting point

COMPOUND: CC(=O)Oc1ccc([N+](=O)[O-])cc1C1(OC(C)=O)C(=O)c2ccccc2C1=O [Example 9]
READING: 163 to 167 °C
--
COMPOUND: CCc1ccc(C2(OC(C)=O)C(=O)c3ccccc3C2=O)c(OC(C)=O)c1 [Example 6]
READING: 136 to 137 °C
--
COMPOUND: COC1(c2ccc(C(C)C)cc2OCc2ccccc2)C(=O)c2ccccc2C1=O [Example 25]
READING: 140 to 144 °C
--
COMPOUND: COc1cc(C(C)C)ccc1C1(O)C(=O)c2c(N)ccc(N)c2C1=O [Example 46]
READING: 243 to 247 °C
--
COMPOUND: Cc1cc(C2(O)C(=O)c3ccccc3C2=O)c(C)cc1O [Example 35]
READING: 228 to 230 °C
--
COMPOUND: CCN(CC)C(=O)Oc1cc(C(C)C)ccc1C1(OC(=O)N(CC)CC)C(=O)c2ccccc2C1=O [Example 33]
READING: 103 to 105 °C
--
COMPOUND: CCC(C)c1ccc(OC(C)=O)c(C2(OC(C)=O)C(=O)c3ccccc3C2=O)c1 (centres unmarked) [Example 13]
READING: 118 to 120 °C
--
COMPOUND: CC(=O)Oc1c(Cl)cc(Cl)cc1C1(OC(C)=O)C(=O)c2ccccc2C1=O [Example 5]
READING: 178 to 180 °C
--
COMPOUND: CC(=O)Oc1cc(C)cc(C2(OC(C)=O)C(=O)c3ccccc3C2=O)c1OC(C)=O [Example 18]
READING: 192 to 194 °C
--
COMPOUND: CC(=O)Oc1cc(Cl)ccc1C1(OC(C)=O)C(=O)c2ccccc2C1=O [Example 3]
READING: 148 to 150 °C
--
COMPOUND: CC(=O)Oc1cc(C)c(C)cc1C1(OC(C)=O)C(=O)c2ccccc2C1=O [Example 2]
READING: 206 to 207 °C
--
COMPOUND: COc1cc(C(C)C)ccc1C1(O)C(=O)c2ccc([N+](=O)[O-])c(NC(C)=O)c2C1=O (centres unmarked) [Example 43]
READING: 199 to 201 °C
--
COMPOUND: CC(=O)Oc1cc(C(C)C)ccc1C1(OC(C)=O)C(=O)c2ccccc2C1=O [Example 19]
READING: 136 to 137 °C
--
COMPOUND: COc1ccc2c(c1)C(=O)C(OC(C)=O)(c1ccc(C(C)C)cc1OC(C)=O)C2=O (centres unmarked) [Example 27]
READING: 146 to 148 °C
--
COMPOUND: CC(=O)Oc1cc(C)c(C)c(C)c1C1(OC(C)=O)C(=O)c2ccccc2C1=O [Example 16]
READING: 238 to 242 °C
--
COMPOUND: COc1cc(C(C)C)ccc1C1(O)C(=O)c2cccc(N)c2C1=O (centres unmarked) [Example 41]
READING: 219 to 220 °C
--
COMPOUND: CC(=O)Oc1cc(-c2ccccc2)ccc1C1(OC(C)=O)C(=O)c2ccccc2C1=O [Example 8]
READING: 165 to 167 °C

* * *

system: Rhino 89; assay: Multicycle CPE reduction assay; assay type: cell-based, rhinovirus 89; details: Enterovirus; 37° C. in HeLa cells
pEC50: −log10 of the molar value.

MOLECULE: CC(=O)Oc1cc(C(C)C)ccc1C1(OC(C)=O)C(=O)c2cccc(N)c2C1=O (stereo not drawn) [Example 36]
pEC50: 6.31
//
MOLECULE: CC(=O)Oc1cc(C)ccc1C1(OC(C)=O)C(=O)c2ccccc2C1=O [Example 74]
pEC50: < 4.30
//
MOLECULE: CC(=O)Oc1cc(C(C)C)ccc1C1(OC(C)=O)C(=O)c2ccccc2C1=O [Example 19]
pEC50: < 4.30

* * *

test system: Coxsackie A9; experiment: Multicycle CPE reduction assay; type: cell-based, Coxsackievirus A9; settings: Enterovirus B, 37° C. in BGM cells
pEC50: −log10 of the molar value.

COMPOUND: CC(=O)Oc1cc(C(C)C)ccc1C1(OC(C)=O)C(=O)c2cccc(N)c2C1=O (stereo not shown)
pEC50: 8.15

* * *

assay: in vitro; settings: human, Picorna-virus CC50
MEASURED PARAMETER: CC50 (µg/mL)

COMPOUND: COC(=O)Oc1cc(C(C)C)ccc1C1(NC(C)=O)C(=O)c2ccccc2C1=O
BOUND TYPE: =
READING: 43.6
--
COMPOUND: CC(=O)NC1(c2ccc(C(C)C)cc2OC(=O)Oc2ccccc2)C(=O)c2ccccc2C1=O
BOUND TYPE: =
READING: 38.1
--
COMPOUND: CCCC(=O)NC1(c2ccc(C(C)C)cc2OC(=O)CCC)C(=O)c2cccc(N)c2C1=O (centres unmarked)
BOUND TYPE: =
READING: 45.9
--
COMPOUND: CCCCCCCC(=O)NC1(c2ccc(C(C)C)cc2OC(=O)CCCCCCC)C(=O)c2cccc(N)c2C1=O (centres unmarked)
BOUND TYPE: =
READING: 40
--
COMPOUND: CC(=O)Nc1ccc([N+](=O)[O-])c2c1C(=O)C(O)(c1cc(C)c(C)cc1NC(=O)C(C)C)C2=O (centres unmarked)
BOUND TYPE: =
READING: 39.2
--
COMPOUND: CCCCOC(=O)Oc1cc(C(C)C)ccc1C1(NC(C)=O)C(=O)c2cccc(N)c2C1=O (centres unmarked)
BOUND TYPE: =
READING: 48.9
--
COMPOUND: CCNC(=O)Oc1cc(C(C)C)ccc1C1(NC(C)=O)C(=O)c2cccc(N)c2C1=O (centres unmarked)
BOUND TYPE: =
READING: 26.3
--
COMPOUND: CCCCCCC(=O)NC1(c2ccc(C(C)C)cc2OC(=O)CCCCCC)C(=O)c2ccccc2C1=O
BOUND TYPE: =
READING: 8.94
--
COMPOUND: Cc1cc(NC(=O)C(C)C)c(C2(O)C(=O)c3ccccc3C2=O)cc1C
BOUND TYPE: =
READING: 38.3
--
COMPOUND: CCCCCC(=O)NC1(c2ccc(C(C)C)cc2OC(=O)CCCCC)C(=O)c2cccc(N)c2C1=O (centres unmarked)
BOUND TYPE: >
READING: 100
--
COMPOUND: CCOC(=O)Oc1cc(C(C)C)ccc1C1(NC(C)=O)C(=O)c2ccccc2C1=O
BOUND TYPE: =
READING: 46

* * *

Below, each entry is listed alongside its reported melting point.

MOLECULE: COC1(c2ccc(C(C)C)cc2O)C(=O)c2ccccc2C1=O
melting point: 272 to 274 °C
//
MOLECULE: CC(C)c1ccc(C2(OC(=O)C(C)(C)C)C(=O)c3ccccc3C2=O)c(OC(=O)C(C)(C)C)c1
melting point: 121 to 124 °C
//
MOLECULE: COc1cc(C(C)C)ccc1C1(NC(=O)C2CC2)C(=O)c2ccccc2C1=O
melting point: 145 to 147 °C
//
MOLECULE: CCNC(=O)NC1(c2ccc(C(C)C)cc2OC)C(=O)c2ccccc2C1=O
melting point: 267 to 269 °C
//
MOLECULE: COc1cc(C(C)C)ccc1C1(NC(N)=O)C(=O)c2ccccc2C1=O
melting point: 272 to 274 °C
//
MOLECULE: CC(C)c1ccc(C2(O)C(=O)c3ccccc3C2=O)c(OCc2ccccc2)c1
melting point: 197 to 199 °C
//
MOLECULE: COc1cc(C(C)C)ccc1C1(NC(C)=O)C(=O)c2ccccc2C1=O
melting point: 222 to 224 °C
//
MOLECULE: CC(C)c1ccc(C2(OC(=O)N(C)C)C(=O)c3ccccc3C2=O)c(OC(=O)N(C)C)c1
melting point: 203 to 205 °C
//
MOLECULE: CSc1ccccc1C1(O)C(=O)c2ccccc2C1=O
melting point: 191 to 193 °C
//
MOLECULE: CC(=O)Oc1c(C2(OC(C)=O)C(=O)c3ccccc3C2=O)ccc(Cl)c1Cl
melting point: 129 to 136 °C
//
MOLECULE: COc1cc(C(C)C)ccc1C1(N=[N+]=[N-])C(=O)c2ccccc2C1=O
melting point: 175 to 177 °C
//
MOLECULE: CCOC(=O)Cc1cc(OC)c(OC(C)=O)c(C2(OC(C)=O)C(=O)c3ccccc3C2=O)c1
melting point: 102 to 107 °C
//
MOLECULE: CCC(=O)NC1(c2ccc(C(C)C)cc2OC(=O)CC)C(=O)c2ccccc2C1=O
melting point: 173 to 175 °C
//
MOLECULE: COc1cc(C(C)C)ccc1C1(N)C(=O)c2ccccc2C1=O
melting point: 164 to 166 °C
//
MOLECULE: CC(C)c1ccc(C2(O)C(=O)c3ccccc3C2=O)c(OC(=O)/C=C/c2ccccc2)c1
melting point: 95 to 97 °C
//
MOLECULE: COc1cc(C(C)C)ccc1C1(O)C(=O)c2c(NC(C)=O)ccc([N+](=O)[O-])c2C1=O (stereo not shown)
melting point: 110 to 115 °C
